# experimental_system: VIM-2 metallo-beta-lactamase (Pseudomonas aeruginosa)
# test_summary: inhibition constants against purified VIM-2 enzyme – biochemical, absorbance, probe candidates and analogs, late-stage follow-up (AID 624083)
# conditions: recombinant VIM-2, nitrocefin hydrolysis absorbance 495 nm
observable: pKi
The scale used: pKi is minus the common logarithm of the concentration in molar units.

- structure_notation: "CN1CCN(NC(=O)CN2C(=O)/C(=C/c3c(Cl)ccc(Cl)c3Cl)SC2=S)CC1"
  experimental_system: "VIM-2 metallo-beta-lactamase (Pseudomonas aeruginosa)"
  pKi: 6.74

# next compound below
*Q* Name the reported pKi value associated with the compound CN1CCN(NC(=O)CN2C(=O)/C(=C/c3c(Cl)cccc3Cl)SC2=S)CC1
*A* 5.75
